Cited source for all entries: PubChem BioAssay AID1626

Known IC90 of a selection of molecules
System: M. tuberculosis H37Rv growth inhibition
Assay: M. tuberculosis H37Rv growth inhibitors, H37Rv strain (AID 1626)
Conditions: measured here: IC90 against H37Rv

{"columns": ["molecule", "IC90"],
 "data": [
  ["Cn1c(-c2c(N)n(-c3ccccc3)c3nc4ccccc4nc23)nc2ccccc21", "> 100 µM"],
  ["Cc1ccc(-c2ccc(/C=N/c3ncn[nH]3)o2)cc1Cl", "> 100 µM"],
  ["CCOc1ccc(N2C(=O)c3ccc(C(=O)OCC(=O)N(CC)C4CCS(=O)(=O)C4)cc3C2=O)cc1 (stereo unspecified)", "> 100 µM"],
  ["Cc1ccc2nc(/C(C#N)=C\\c3ccc([N+](=O)[O-])o3)[nH]c2c1", "< 0.195 µM"],
  ["COCCn1nnnc1C(c1cc2cc(OC)ccc2[nH]c1=O)N1CCC(Cc2ccccc2)CC1 (stereo unspecified)", "15.8 µM"],
  ["COC(=O)COc1ccc2c(=O)c(-c3ccccc3OC)coc2c1", "5.62 µM"],
  ["O=C(Nc1ccc(-c2csnn2)cc1)C1CC1", "> 100 µM"],
  ["O=C(Nc1nc2ccccc2[nH]1)c1ccc(Cl)c([N+](=O)[O-])c1", "> 100 µM"],
  ["O=C(COc1ccc(Cl)cc1)Nc1nnc(-c2ccc3c(c2)CCCC3)o1", "> 100 µM"],
  ["CCOc1ccc(Nc2nc(N)nc(CCl)n2)cc1", "> 100 µM"],
  ["O=C(CCSc1ccc(Cl)cc1)c1cccs1", "> 100 µM"],
  ["Cc1nc(N2CCN(Cc3ccc(Cl)cc3)CC2)c2oc3ccccc3c2n1", "19.8 µM"],
  ["Cc1nc(NC(=O)c2ccccc2)sc1Cc1ccc2c(c1)OCO2", "> 100 µM"],
  ["O=c1c([N+](=O)[O-])cc(C(F)(F)F)cn1Cc1cccc(Cl)c1", "22.2 µM"],
  ["COc1ccc(C)cc1N=Nc1ccc(O)c2ncccc12", "> 100 µM"],
  ["O=C(c1nnsc1S(=O)(=O)c1ccc(Cl)cc1)N1CCOCC1", "11.6 µM"]
]}

----------
Tested on: M. tuberculosis H37Rv growth inhibition
Assay: M. tuberculosis H37Rv growth inhibitors, H37Rv strain (AID 1626)
Conditions: measured here: Vero cell cytotoxicity
value.kind: CC50

{"columns": ["compound", "result"],
 "data": [
  ["O=C(OCc1cccc2ccccc12)c1ccc2c(=O)[nH]c(CN3CCOCC3)nc2c1", "> 40 µM"],
  ["C[n+]1c2n(c3ccccc31)N=C(c1cc(C(C)(C)C)c(O)c(C(C)(C)C)c1)CS2", "> 40 µM"],
  ["COc1cc(CNc2ccc(N3CCN(C(C)=O)CC3)cc2)ccc1OCc1ccc(F)cc1", "> 40 µM"],
  ["CCCc1cc(=O)[nH]c(SCC(=O)Nc2nc3ccc(OCC)cc3s2)n1", "> 40 µM"],
  ["COc1cccc(CNc2ccccc2O)c1OCc1ccccc1F", "> 40 µM"],
  ["CCn1ccnc1CN(C)Cc1cn(-c2cccc(C)c2)nc1-c1cccc(F)c1", "> 40 µM"],
  ["COc1cc(/C=C(\\C#N)C(=O)NC2CCCCC2C)ccc1OS(=O)(=O)c1ccc(C)cc1 (stereo not drawn)", "9.49 µM"],
  ["CCOC(=O)Cc1ccc(NC(=O)c2ccc(C(C)(C)C)cc2)cc1", "> 40 µM"],
  ["Cc1ccc(Cl)cc1NC1=C/C(=N\\S(=O)(=O)c2cccs2)c2ccccc2C1=O", "5.83 µM"],
  ["CCN(Cc1ccccc1)c1ccc(/C=N/N=C(N)N)cc1", "8.71 µM"],
  ["O=C(c1ccccc1)N1CCN(c2ccc([N+](=O)[O-])cc2-n2cccc2)CC1", "> 40 µM"],
  ["CCN(CC)c1ccc(N=Cc2ccc([N+](=O)[O-])o2)cc1", "> 40 µM"],
  ["c1coc(CNc2nc(N3CCCCC3)nc3ccccc23)c1", "> 40 µM"]
]}
